Assay: A CellTox Green Cytotoxicity Assay to monitor cytotoxicity in HepG2 cells - 32 hour (AID 1224883); also: % is scaled to controls: 0 for no effect and ±100 for the full control effect; nearly all actives have a fitted effect of over 50% in size
Conditions: CellTox Green fluorescence; series mostly up to 76.8 µM
Results filed as inconclusive are left out. The source made the active and inactive calls. Calls follow the shape of the dose curve; as a rule, active = well fitted activation curve with a large enough effect in the repeat runs; inconclusive = weak or mixed curves; inactive = flat fitted curve, though single readings scatter.
readout.label: cytotoxicity increase

Query :: Using the record for Cc1[nH]c(C)c(Cl)c(=O)c1Cl , report its cytotoxicity increase.
Result :: -7.2% [at 15.8 µM] (inactive)

Query :: # lookup: cytotoxicity increase of NC(N)=NCCC[C@H](N)C(=O)O
Result :: -4.17% [at 6.97 µM] (inactive)

Query :: For the compound Brc1c2ccccc2c(Br)c2ccccc12 , what cytotoxicity increase is on record?
Result :: 2.42% [at 6.97 µM] (inactive)

Query :: Can you share its cytotoxicity increase? I mean this compound: C/C=C/C(=O)CC
Result :: 2.71% [at 15.8 µM] (inactive)

Query :: Give its cytotoxicity increase value. Item: O=C(O)CNCC(=O)O
Result :: -4.58% [at 6.97 µM] (inactive)

Query :: Give the measured cytotoxicity increase of CC(CSC(=O)c1ccccc1)C(=O)N1C[C@@H](Sc2ccccc2)C[C@H]1C(=O)O (some centres not stated) .
Result :: -3.06% [at 15.8 µM] (inactive)

Query :: Find the recorded cytotoxicity increase belonging to CN(C)c1ccc(/C=C/c2ccc([N+](=O)[O-])cc2)cc1 and report it.
Result :: 16% [at 6.97 µM] (inactive)

---

Would you mind telling me the reported activity change, positive = activation of each entry?
Test: qHTS assay to identify small molecule agonists of the estrogen related receptor (ERR) signaling pathway from Tox21 library (AID 1224849); also: % is scaled to controls: 0 for no effect and ±100 for the full control effect; nearly all actives have a fitted effect of over 15% in size
Conditions: ERR reporter cell line, ONE-Glo luciferase, 18 h; at 92.4 µM (top of the series) unless noted
Active and inactive are the calls of the source. Calls come from the whole dose curve.

Query :: Can you share its activity change, positive = activation? I mean this compound: CCCCCCCCCCCCCCCCCCOS(=O)(=O)O
Result :: -38.9% (inactive)

Query :: Param item = CCCCCCCC/C=C\CCCCCCCC(=O)OCC ; retrieve measured activity change, positive = activation.
Result :: -11.5% (inactive)

Query :: Given the entry NS(=O)(=O)c1ccc(N2CCCCS2(=O)=O)cc1 , report its measured activity change, positive = activation.
Result :: 5.22% [at 42.5 µM] (inactive)

Query :: Reported activity change, positive = activation, compound O=S(c1cc(Cl)cc(Cl)c1O)c1cc(Cl)cc(Cl)c1O : ____
Result :: -6.01% [at 42.5 µM] (inactive)

Query :: Quick one: activity change, positive = activation of CCC(C)(C)CC ?
Result :: -6.86% (inactive)

Query :: // query activity change, positive = activation value for entry C[Si](C)(CCCN)O[Si](C)(C)CCCN
Result :: -0.594% (inactive)

Query :: # activity change, positive = activation lookup, item COc1ccc(C(=O)c2ccc(OC)cc2O)c(O)c1
Result :: -2.18% (active)

---

Assay: qHTS RealTime-Glo MT Cell Viability Assay in HepG2 cells - 40 hour (AID 1224870); also: % is scaled to controls: 0 for no effect and ±100 for the full control effect; nearly all actives have a fitted effect of over 50% in size
Conditions: RealTime-Glo luminescence; series mostly up to 76.8 µM
Inconclusive results are not listed. The source made the active and inactive calls. The call rests on the fitted dose curve; in most records, active means well fitted cell-killing curve with a large enough effect in the repeat runs; inconclusive means weak or mixed curves, or effect the other way; inactive means flat fitted curve, though single readings scatter.
readout.label: activity change, negative = cytotoxic

Recorded results for 6 compounds are shown here.
{"columns": ["sample.smiles", "readout.value"],
 "data": [
  ["Cc1cccc(C)c1NC(=O)CN(CC(=O)O)CC(=O)O", "inactive"],
  ["CCCCc1nc2cccnc2n1Cc1ccc(-c2ccccc2-c2nnn[nH]2)cc1", "inactive"],
  ["COC(C)OC", "inactive"],
  ["Cc1c(N)cccc1[N+](=O)[O-]", "inactive"],
  ["CCCCCCCC/C=C\\CCCCCCCC(=O)OCC", "inactive"],
  ["Clc1ccc(Cn2c(CN3CCCC3)nc3ccccc32)cc1", "inactive"]
]}

Attention now turns to another entry.
Query :: Reported activity change, negative = cytotoxic, compound O=S(=O)(Oc1ccc(Cl)cc1)c1ccccc1 : ____
Result :: inactive

---

Test: qHTS assay for identifying genotoxic compounds that show differential cytotoxicity against isogenic chicken DT40 cell lines with known DNA damage response pathways - Rev3 mutant cell line (AID 743014); also: nearly all actives have a fitted effect of over 55% in size
Conditions: chicken DT40 Rev3-/- viability, CellTiter-Glo, 40 h; series mostly up to 68.4 µM
Description: National Center for Advancing Translational Sciences [NCATS] NIH Chemical Genomics Center [NCGC] U.S. Environmental Protection Agency [EPA] National Institutes of Environmental Health Sciences [NIEHS] National Toxicology Program [NTP] U.S. Food and Drug Administration [FDA] DNA repair pathways play a critical role in cellular homeostasis by repairing DNA damage induced by endogenous processes and xenobiotics. […]
Inconclusive results are not listed. Calls of active or inactive are those of the source. Calls follow the shape of the dose curve; as a rule, active = well fitted cell-killing curve with a large enough effect in the repeat runs; inconclusive = weak or mixed curves, or effect the other way; inactive = no such curve, though single readings can be large or run the other way.
Reply using exactly one outcome from active, inactive

Query :: Hi, sorry to bother you, what did the test record for CCOC(=O)NCCOc1ccc(Oc2ccccc2)cc1 ?
Result :: active

Query :: Record request — test call for C#C[C@]1(O)CC[C@H]2[C@@H]3CCc4cc(OC5CCCC5)ccc4[C@H]3CC[C@@]21C
Result :: active

Query :: For CC(C)(CO)[N+](=O)[O-] , which call appears in the assay record?
Result :: inactive

Query :: What outcome does the record of this test show for CCOc1ccc(N=Nc2ccc(/C=C/c3ccc(N=Nc4ccc(OCC)cc4)cc3S(=O)(=O)O)c(S(=O)(=O)O)c2)cc1 ?
Result :: inactive

Query :: Outcome? O=C1CCCCCCCCCCCC(=O)OCCO1
Result :: active

Query :: # outcome recorded in this test, key = O=C(O)c1ccc(S(=O)(=O)O)cc1C(=O)O
Result :: inactive

Query :: Query: recorded result category for NCC(=O)CCC(=O)O in this test
Result :: inactive

Query :: // outcome(item) with item = Nc1cccc([N+](=O)[O-])c1
Result :: inactive

Query :: Please state the recorded outcome for this molecule: CN1CCC(=C2c3ccccc3Sc3ccccc32)CC1
Result :: active

Query :: In this assay, the call recorded for CCCCc1nc2cccnc2n1Cc1ccc(-c2ccccc2-c2nnn[nH]2)cc1 was what?
Result :: inactive

Query :: Test call for this molecule, please: COc1ccc(-c2nc3ccc(C4=NNC(=O)CC4C)cc3[nH]2)cc1 (stereo unspecified)
Result :: active

Query :: Which result was noted for this molecule in the test: CCOC(=O)C(F)(F)F
Result :: active

Query :: Look up the recorded call for CCCCCC[C@@H](O)C/C=C\CCCCCCCC(=O)OC in this test.
Result :: inactive

Query :: So what was the verdict on O=C(O)C1(C(=O)Nc2ccc(Cl)cc2Cl)CC1 in this test?
Result :: active

Query :: // param item: OC(CN1CCC(Cc2ccc(F)cc2)CC1)c1ccc(Cl)cc1 (stereo unspecified) ; yields the recorded call
Result :: active

Query :: Assay outcome for C/C=C/C(=O)CC : what was it?
Result :: inactive

Query :: Which outcome was entered for the molecule CCCCCCCC#N in this test?
Result :: inactive

Query :: Entry O=C(O)c1nc(Cl)c(Cl)c(Cl)c1Cl : call = ?
Result :: inactive

Query :: Called result for CCCCc1ncc(/C=C(\Cc2cccs2)C(=O)O)n1Cc1ccc(C(=O)O)cc1
Result :: inactive

Query :: Which outcome did this test record for the molecule CN1CCN(C(c2ccccc2)c2ccccc2)CC1 ?
Result :: inactive

Query :: Each molecule tested received a call. Report the one for CC(C)O.CC(C)O.CCOC(=O)/C=C(\C)O.CCOC(=O)/C=C(\C)O.[Ti] .
Result :: inactive

Query :: Please let me know the test result on file for CC(C)(COC(=O)c1ccccc1)COC(=O)c1ccccc1 .
Result :: active

Query :: GET /call?item= NCC(=O)O returns the recorded outcome of this test.
Result :: inactive

Query :: Outcome logged for Nc1cc(C(=O)O)c(O)c(S(=O)(=O)O)c1 in this assay:
Result :: inactive

Query :: Which outcome was assigned to COCC(C)OC(C)=O (stereo unspecified) in this test?
Result :: inactive

Query :: So what was the verdict on O=C1[C@H]2CCCC[C@H]2C(=O)N1CCCCN1CCN(c2nsc3ccccc23)CC1 in this test?
Result :: active

---

Assay: qHTS assay to identify small molecule antagonists of the peroxisome proliferator-activated receptor delta (PPARd) signaling pathway - cell viability counter screen (AID 743213); also: nearly all actives have a fitted effect of over 50% in size
Conditions: PPARd-bla HEK293H viability, CellTiter-Glo luminescence, 17 h; series mostly up to 62 µM
Results filed as inconclusive are left out. Activity calls are given as the source filed them. The call rests on the fitted dose curve; in most records, active means well fitted cell-killing curve with a large enough effect in the repeat runs; inconclusive means weak or mixed curves; inactive means no such curve, though single readings can be large or run the other way.
API: response.call in active, inactive

Query :: What did the test return for COC(=O)C1=C(C)NC(COC(N)=O)=C(C(=O)OC(C)C)C1c1cccc(Cl)c1Cl (stereo unspecified) ?
Result :: inactive

Query :: Please state the recorded outcome for this compound: O=C(NCCO[N+](=O)[O-])c1cccnc1
Result :: inactive

Query :: What was the test verdict on CC1OC(=O)C(C)OC1=O (stereo unspecified) ?
Result :: inactive

Query :: # outcome recorded in this test, key = O=C1OC(CN2CCOCC2)CN1/N=C/c1ccc([N+](=O)[O-])o1 (stereo unspecified)
Result :: inactive

Query :: Give the logged outcome of this assay for the following compound: CNCCCN1c2ccccc2CCc2ccccc21
Result :: active

Query :: Look up the recorded call for CC[N+]1(CC)CCC(=C(c2ccccc2)c2ccccc2)C1C (stereo unspecified) in this test.
Result :: inactive

Query :: Tell me the assay call for CN(C)CCN(Cc1ccccc1)c1ccccn1 please.
Result :: inactive

Query :: Assay result, entry CCCCCCOC(=O)NC(=N)c1ccc(NCc2nc3cc(C(=O)N(CCC(=O)OCC)c4ccccn4)ccc3n2C)cc1 — outcome?
Result :: active

Query :: What is the recorded call for this compound in the test? COc1cc2nc(Cl)nc(N)c2cc1OC
Result :: inactive

Query :: Which outcome was entered for the compound O=C(Nc1ccccc1)c1ccccc1O in this test?
Result :: inactive

Query :: Outcome logged for COC(C)OC in this assay:
Result :: inactive

Query :: Field: outcome | Entry: COC(C)(C)CCO
Result :: inactive

Query :: Write down the call the test reported for this compound. Item: CCO[Si](CCCCl)(OCC)OCC
Result :: inactive

Query :: What classification did CCC(C)(C)CC end up with in this test?
Result :: active

Query :: # lookup: test call for CC(C)OC(=O)C(C)N(C(=O)c1ccccc1)c1ccc(F)c(Cl)c1 (stereo unspecified)
Result :: inactive

Query :: Per the records of this test, what outcome belongs to CC1=CCCC(C)(C)C12CCC(C)O2 (stereo unspecified) ?
Result :: inactive

Query :: What did the test return for CNC(=O)CN(CCN(CCN(CC(=O)[O-])CC(=O)NC)CC(=O)[O-])CC(=O)[O-].O.[Gd+3] ?
Result :: inactive

Query :: Please indicate how the test categorized CCOc1ccc(N=Nc2ccc(/C=C/c3ccc(N=Nc4ccc(OCC)cc4)cc3S(=O)(=O)O)c(S(=O)(=O)O)c2)cc1 .
Result :: inactive

Query :: Which result was noted for this compound in the test: CCCCCCCCCCCCN1CCCCCC1=O
Result :: inactive

Query :: Please share the test call associated with C=C(C)C(=O)OCCOCC .
Result :: inactive

Query :: Hi, do you know how CC(C)Cc1ccc(C(C)C(=O)OCc2ccccn2)cc1 (stereo unspecified) came out in this test?
Result :: inactive

Query :: Record request — test call for CC1=CC[C@H](C(C)C)C=C1
Result :: inactive

Query :: Which outcome was entered for the compound O=C(O)CC(=O)C(=O)O in this test?
Result :: inactive

Query :: Dear all, I need the recorded test outcome for C=CC(=O)OCCOc1ccccc1 , thank you.
Result :: inactive

Query :: Would you mind telling me which call this test gave COc1cc2nc(N3CCN(C(=O)C4COc5ccccc5O4)CC3)nc(N)c2cc1OC (stereo unspecified) ?
Result :: inactive

Query :: Outcome? Nc1ncn([C@H]2C[C@H](O)[C@@H](CO)O2)c(=O)n1
Result :: inactive
